system: U251 CNS; experiment: NCI tumour cell line growth inhibition, 48 h
What TGI was measured for each of the following?

CCc1cc2c(oc3cc(C)ccc32)c(=O)n1C | > 10 µM
O=c1[nH]n(Cc2ccccc2Cl)c2ccccc12 | > 100 µM

For the next question, use this molecule.
Prompt: Name the recorded TGI for "COP(=O)(OC)/C(=C\c1cn(C(c2ccccc2)(c2ccccc2)c2ccccc2)cn1)NC(C)=O" .
Response: > 100 µM

* * *

test system: MOLT-4 leukemia; experiment: NCI tumour cell line growth inhibition, 48 h
Please respond with reported TGI for every item in the list.

Known results for compounds:
COc1ccc(N2C(=O)CC(c3c[nH]c4ncccc34)C2=O)cc1 (centres undefined) | > 41 µM
O=C(NO)c1ccc(O)c(O)c1 | > 100 µM
COC(=O)CCC(=O)NC1C2CC3CC(C2)CC1C3 (centres undefined) | > 100 µM

Prompt: Any idea what TGI was measured for "O=C1c2ccccc2-c2c1c(-c1cccc(Br)c1)nc1ccc3ccccc3c21" ?
Response: > 100 µM

* * *

tested on: COLO 205 colon; test: NCI tumour cell line growth inhibition, 48 h
Kindly supply the reported TGI values for the records listed here.
Answers are plain numbers, in µM.

Below, each entry is followed by its recorded TGI result.
CN(C)Cc1cc(C(C)(C)C)cc(C2CCCCC2)c1O | 27.2
NC(=O)c1cccc([C@@H]2O[C@H](CO)[C@@H](O)[C@H]2O)c1 | 48.7

Record TGI for all entries; do not skip any.
1. O=C(CCN1CCOCC1)C(=Cc1ccccc1)C(=O)CCN1CCOCC1
2. CSc1cccc(NC(=O)OC2CCCCCCCCCCC2)c1

Response:
1. 6.97
2. 28.3

Prompt: Could you share which TGI value was measured for "O=[N+]([O-])c1ccc(S(=O)(=O)Cc2ccccc2)c2nonc12" ?
Response: 31.1

* * *

tested on: K-562 leukemia; test: NCI tumour cell line growth inhibition, 48 h
assayReadout: TGI

Nc1n[nH]c(CCc2nc(N)n[nH]2)n1 | > 100 µM
O=C1c2ccccc2C(=O)c2oc(Br)cc21 | 4.77 µM
C=CS(=O)(=O)CCN1CC1 | > 10 µM

Here is another molecule to look at.
Prompt: I would be grateful if you could share the reported TGI for "CC1=C(/C=C/C(C)=C/C=C/C(C)=C/CO)C(C)(C)CCC1" .
Response: > 100 µM

* * *

test system: UO-31 renal; experiment: NCI tumour cell line growth inhibition, 48 h
assayReadout: TGI

Known results for compounds:
CO[C@H]1CC(c2ccc[nH]2)=N[C@]12O[C@@H](C)C[C@@H]1CCCCCCCc3ccc([nH]3)[C@H]12 | 4.2 µM
Cn1c2ccccc2c(=O)c2[nH]c3ccccc3c21 | > 100 µM
CC1=NN=C(N)NC1=CC(Sc1ccc(Cl)cc1)c1c(O)ccc2ccccc12 (stereo unspecified) | > 67.6 µM
O=C(Nc1ccn(CCI)c(=O)n1)c1ccccc1 | > 100 µM

Look up TGI for the entries below, preserving their order.
1. COc1ccc(Nc2cc(C)nc(N3CCN(c4ccnc5cc(Cl)ccc45)CC3)n2)cc1
2. CC(=O)NNc1nc(C)c(C(=O)NNC(=O)C(=O)Nc2c(C)cccc2C(C)(C)C)s1

Response:
1. > 100 µM
2. > 100 µM

Fill in TGI for each of the 5 compounds listed.
1. CC(=O)Oc1ccc(C(c2ccc(OC(C)=O)cc2)c2ccccn2)cc1
2. O=c1ccn(C2OC(CN(O)CCC3C(CO)OC(n4ccc(=O)[nH]c4=O)C3O)C(O)C2O)c(=O)[nH]1 (stereo unspecified)
3. COc1ccc(Nc2c3ccccc3nc3[nH]c4ccccc4c23)cc1
4. c1ccc2c(c1)C1=NCCN1c1ccccc1-2
5. CCOP(=O)(OCC)/C(C#N)=C/c1c[nH]c2ccccc12

Response:
1: > 100 µM; 2: > 100 µM; 3: > 50 µM; 4: 18.4 µM; 5: 77.4 µM

* * *

test system: BT-549 breast; experiment: NCI tumour cell line growth inhibition, 48 h
Kindly supply the reported TGI values for the records listed here.

Worked cases, answers included:
O=C1C=CC(O)C2C1CC13SSC4(CC5C(=O)C=CC(O)C5N4C1=O)C(=O)N23 (configuration not stated) | 3.65 µM
O=C(NNC(=O)c1ccccc1O)c1ccc(O)cc1 | > 100 µM
CC(C)(C)C1CCC2c3c([nH]c4ccccc34)C3C(=O)N(c4ccc5c(c4)C(=O)c4ccccc4C5=O)C(=O)C3C2C1 (configuration not stated) | > 100 µM
N#CCCN(CCN(CCC#N)C(=O)Nc1ccccc1)C(=O)Nc1ccccc1 | > 100 µM

# map each compound to its TGI
1. COC(=O)c1c(-c2ccccc2)c2sc3ccccc3n2c1N
2. CCC(=O)C(C(C)/C=C/CCSc1ccccc1)C(O)CCCCCC(=O)OC (configuration not stated)
3. CN(C)CCN1C(=O)c2cccc3cccc(c23)C1=O

Response:
1: > 100 µM; 2: > 100 µM; 3: > 25 µM

* * *

I'd appreciate it if you could supply TGI values for the items below.
tested on: NCI-H460 lung; test: NCI tumour cell line growth inhibition, 48 h

// below: answered compounds
O=[N+]([O-])c1ccc(S(=O)(=O)Cc2ccccc2)c2nonc12 | 37.8 µM
CC1=NN=C(N)NC1=CC(Sc1ccc(Cl)cc1)c1c(O)ccc2ccccc12 (configuration not stated) | 45.1 µM
c1ccc2c(c1)C1=NCCN1c1ccccc1-2 | 4 µM
CC1=NN(C(=O)CC(=O)Nc2cccc(Cl)c2)C(=O)C1N=Nc1ccc(C(=O)O)cc1 (configuration not stated) | > 100 µM
COc1cc2c3c(n(CCCN=[N+]=[N-])c(=O)c2cc1OC)-c1ccc(N(C)C)cc1C3=O | > 100 µM
Cc1ccc(S(=O)(=O)NCCCSCCSCCCN)cc1 | > 100 µM
O=C(CC1C(=O)Nc2ccccc2S1=O)Nc1ccc(Cl)cc1 (configuration not stated) | > 100 µM
C/C=C(\C)C(=O)N[C@H]1C(O)C[C@]2(C)C3CC[C@@]4(C)C(CC[C@@H]4C(C)N(C)C)C3CCC2C1O (some centres not stated) | 4.59 µM

Go through the list and state TGI for each entry.
1. CCc1cc2c(oc3cc(C)ccc32)c(=O)n1C
2. O=C1NC(=O)C2C1N(Cc1ccccc1)C(=O)N2Cc1ccccc1 (configuration not stated)
3. Cc1cc(Cl)ccc1C1OC(=O)c2c1ccc1ccccc21 (configuration not stated)
4. CCOC(=O)C(=O)C(CCC(=O)c1ccc2ccccc2c1O)C(=O)OCC (configuration not stated)

Response:
["> 10 µM", "> 100 µM", "> 100 µM", "> 100 µM"]

* * *

test system: UACC-62 melanoma; assay: NCI tumour cell line growth inhibition, 48 h
For each record, write down the corresponding TGI.

Solved entries:
COc1ccc(OC)c(Nc2nc(-c3c(C)nc4sccn34)cs2)c1 | > 100 µM
CC(C)C(NCc1c(O)ccc2c(-c3ccccc3)cc(=O)oc12)C(=O)O (centres undefined) | > 100 µM
Clc1nc(Cl)c2ncn(Cc3ccc(Cn4cnc5c(Cl)nc(Cl)nc54)cc3)c2n1 | 27.8 µM
CCC(Oc1ccc(OC)c2ccccc(=O)c12)C(=O)O (centres undefined) | > 100 µM
CCc1n[nH]c(=O)n1CCO | > 100 µM
CN1C(Cl)=NS(=O)(=O)c2ccccc21 | > 100 µM

// input: 3 compounds below; output: TGI for each
1. O=C(O)C1=C(C(=O)Nc2ccc(NC(=O)C3=C(C(=O)O)C4C=CC3C4)cc2)C2C=CC1C2
2. Cc1cccc(Nc2cnc(N)nc2N)c1
3. C[C@H]1C(=O)CC[C@]2(C)CCC(C(C)(C)O)CC12O (some centres undefined)

Response:
["> 100 µM", "> 100 µM", "> 100 µM"]

Hi team, please reply with TGI for each item in this list.
1. NCCSCCc1ccccc1
2. Cc1cc(-c2nc3cccc(F)c3s2)ccc1N
3. CC1=CC(=O)N(c2c(C)cccc2Cl)C(C)N1 (centres undefined)
4. ClCc1ccc(Cn2cnc3c(Cl)nc(Cl)nc32)cc1
5. Nc1n[nH]c(CCc2nc(N)n[nH]2)n1
6. COc1cc(C(=O)Nc2cc(C(N)=O)cc(OC)c2OC)cc(NC(=O)/C=C/c2ccccc2)c1OC
7. Cc1c(C)c(S(=O)(=O)N(CCCCCON)OCCCN)c(C)c2c1OC(C)(C)CC2

Response:
1: > 100 µM; 2: > 100 µM; 3: > 100 µM; 4: 4.4 µM; 5: > 100 µM; 6: 35.6 µM; 7: 27.4 µM

* * *

system: NCI/ADR-RES ovarian; experiment: NCI tumour cell line growth inhibition, 48 h
Could you please report measured TGI for the items listed next?

The following compounds have reported results that may help.
C=CCn1c(-c2ccc(-c3cs/c(=N\N=O)n3CC=C)cc2)cs/c1=N\N=O | > 100 µM
C/C(=N\NC(=S)NCc1ccccc1)c1nc2ncccc2[nH]1 | 78.8 µM
Cn1cnc([N+](=O)[O-])c1Sc1ncn[nH]1 | > 100 µM

Look up TGI for the entries below, preserving their order.
1. N#Cc1c(N2CCOCC2)[nH]c(=O)c(C(c2c(Cl)cccc2Cl)c2c(O)c(C#N)c(N3CCOCC3)[nH]c2=O)c1O
2. CC(=O)c1sc(=N)n(-c2c(C)cccc2C)c1C
3. O=C1CC(c2ccc(Cl)cc2)Oc2ccccc21 (stereo not drawn)
4. O=C1Oc2cc3c(c4cccc1c24)O[C@H](c1ccccc1)[C@@H](c1ccccc1)[C@@H]3c1ccc(Cl)cc1
5. O=C1c2ccccc2-c2c1c(-c1cccc(Br)c1)nc1ccc3ccccc3c21
6. CCCCCC(O)C1C(=O)OC(C)C(O)/C=C/C=C/C=C/C=C/C=C(\C)C(O)C(O)C(O)CC(O)CC(O)CC(O)CC(O)CC1O (stereo not drawn)

Response:
> 100 µM
> 100 µM
50.6 µM
> 100 µM
> 100 µM
3.73 µM

// for each compound below, give its TGI
1. OC(C/C=N/Nc1ccccc1)(C(F)(F)Cl)C(F)(F)Cl
2. O=C1OC(OCC#CCOC2OC(=O)C(Cl)=C2Cl)C(Cl)=C1Cl (stereo not drawn)
3. O=c1[nH]n(Cc2ccccc2Cl)c2ccccc12

Response:
["> 10 µM", "75.3 µM", "> 100 µM"]

Prompt: Suppose we examine the compound "O=C(O)/C=C/C(=O)N1C/C(=C\c2ccccc2)C(=O)/C(=C/c2ccccc2)C1" ; what TGI value has been reported?
Response: 61.7 µM
